Source listed as ChEMBL document CHEMBL3352013.

Molecular target: CDK2/Cyclin A2 (Homo sapiens)
Test: Inhibition of human CDK2/cyclin A using Biotin-C6-PKTPKKAKKL substrate
pIC50: −log10 of the molar value.
QUANTITY NAME: pIC50

compound=COc1cccc(OC)c1C(=O)Nc1c[nH]nc1C(=O)NC1CCC1 relation_sign== measured_number=5.62
compound=CO[C@H]1CC[C@H](NC(=O)c2n[nH]cc2NC(=O)c2cc(Cl)cc(Cl)c2)CC1 relation_sign== measured_number=6.20
compound=COc1cccc(OC)c1C(=O)Nc1c[nH]nc1C(=O)NCCN1CCCC1 relation_sign=< measured_number=5.00
compound=COc1cccc(OC)c1C(=O)Nc1c[nH]nc1C(=O)Nc1ccccn1 relation_sign=< measured_number=5.00
compound=COc1ccccc1C(=O)Nc1c[nH]nc1C(=O)N[C@H]1CC[C@H](OC)CC1 relation_sign== measured_number=7.00
compound="COc1cccc(OC)c1C(=O)Nc1c[nH]nc1C(=O)NC1CCC(C)CC1 (mixture of isomers)" relation_sign=< measured_number=5.32
compound=COc1cccc(OC)c1C(=O)Nc1c[nH]nc1C(=O)Nc1ccccc1 relation_sign== measured_number=5.37
compound=CO[C@H]1CC[C@H](NC(=O)c2n[nH]cc2NC(=O)Cc2c(Cl)cccc2Cl)CC1 relation_sign== measured_number=6.54
compound="COc1cccc(OC)c1C(=O)Nc1c[nH]nc1C(=O)NC1CC2CCC1C2 (stereo not given)" relation_sign=< measured_number=5.00
compound=COc1cccc(OC)c1C(=O)Nc1c[nH]nc1C(=O)O relation_sign=< measured_number=5.00
